# System: A498 renal
# assay text: NCI tumour cell line growth inhibition, 48 h; in the data active = GI50 below about 0.43 µM; inactive = the rest
Outcomes you can answer with include only these: active, inactive

CC1(C)C(=O)/C(=C\c2cccnc2)C[C@]2(C)[C@H]3CC[C@@H]4[C@@H](C(=O)/C=C/c5ccncc5)CC[C@@]4(C)[C@]3(C)CC[C@@H]12 | inactive
Nc1ncc(-c2cccc(S(N)(=O)=O)c2)c2scc(-c3ccc(F)c(Cl)c3)c12 | inactive
COc1cccc2c1n([O-])c1cccc(OC)c1[n+]2=O | inactive
Cc1cc(Nc2cc(N)ncn2)c(=O)n2c1C(=O)NC21CCCCC1 | inactive
Cc1cccc(Cc2cnc(NC(=O)CCc3ccc(C)o3)s2)c1 | active

Prompt: What did this assay record as the result for O=C(CCc1ccc(O)cc1)N/N=C/c1cc(Br)ccc1O ?
Completion: inactive

Prompt: Please let me know the test result on file for COc1c(B(O)O)cc(F)cc1-c1nc2ccc3[nH]ncc3c2c2c1CCCC2 .
Completion: active

Prompt: Just curious, what result did C=C1C(=O)O[C@H]2[C@H]1CC/C(COC(=O)NCc1ccc(Cn3c(=O)sn(-c4ccccc4)c3=O)cc1)=C\CC[C@@]1(C)O[C@@H]21 get here?
Completion: inactive

Prompt: Which result was noted for this compound in the test: CS(=O)(=O)N(c1cc(-c2ccc3ncnc(Nc4cccc(Cl)c4)c3c2)cnc1Cl)S(C)(=O)=O
Completion: active

Prompt: Hi, sorry to bother you, what did the test record for Cc1ccc([C@]2(C)CC[C@H](C)/C2=C\Br)c(O)c1 ?
Completion: inactive

Prompt: I would be grateful if you could indicate the recorded call for CCN(c1cc(C#CCN2CCOCC2)cc(C(=O)NCc2c(C)cc(C)[nH]c2=O)c1C)C1CCC(N(C)CCOC)CC1 (stereo unspecified) .
Completion: inactive
